Give measured zone of inhibition at 100 µg/mL for each item. Keep answers brief.
Tested on: Escherichia coli
Test: Antibacterial activity against Escherichia coli K-12 at 100 ug/ml after 24 hr by filter paper disk method
Assay type: functional
Settings: K-12, 24 h, read-out: DIZ

Q: Given the entry "Cc1nn(-c2ccccc2)c(Cl)c1C=C1C(=O)NC(=O)NC1=O" , report its measured zone of inhibition at 100 µg/mL.
Result: 15 mm

Q: I am curious: what zone of inhibition at 100 µg/mL value has been reported for "CC1=NN(c2ccccc2)C(=O)/C1=C/c1c(C)nn(-c2ccccc2)c1Cl" ?
Result: 8 mm

Q: Given the entry "Cc1nn(-c2ccccc2)c(Cl)c1C=C1C(=O)c2ccccc2C1=O" , report its measured zone of inhibition at 100 µg/mL.
Result: 17 mm

Q: Consider the compound shown here: "Cc1nn(-c2ccccc2)c(Cl)c1/C=C1\Sc2ccccc2NC1=O" What is its recorded zone of inhibition at 100 µg/mL?
Result: 8 mm

Q: Requested read-out: zone of inhibition at 100 µg/mL. Entry: "Cc1nn(-c2ccccc2)c(Cl)c1C=C1C(=O)N(C)C(=S)N(C)C1=O"
Result: 15 mm

Q: Look up zone of inhibition at 100 µg/mL: "Cc1nn(-c2ccccc2)c(Cl)c1C=C1C(=O)N(C)C(=O)N(C)C1=O"
Result: 15 mm
